Data provenance: PubChem BioAssay AID1918944

Test system: 786-0 complex spheroid viability
Assay: Anticancer human tumor 786-0 cell line growth inhibition; active = viability on the fitted dose curve at most 10% of control; inactive = the rest;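 also: spheroids exposed to agents for seven days before readout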
Details: second compound 1 µM; first compound 0.03 µM
Possible outcomes: yes for active, no for inactive

{"COMPOUND": "NS(=O)(=O)OCC1CC(n2ccc3c(NC4CCc5ccccc54)ncnc32)CC1O (centres undefined) + NC1CCC(NC2CC2c2ccccc2)CC1", "TGT": "786-0 complex spheroid viability", "ANSWER_LABEL": "no"}
{"COMPOUND": "CCc1c2c(nc3ccc(O)cc13)-c1cc3c(c(=O)n1C2)COC(=O)[C@]3(O)CC + NC1CC1c1ccc(-c2cccc(O)c2)cc1", "TGT": "786-0 complex spheroid viability", "ANSWER_LABEL": "yes"}
{"COMPOUND": "COc1cc(C2c3cc4c(cc3C(OC3OC5COC(C)OC5C(O)C3O)C3COC(=O)C23)OCO4)cc(OC)c1O (centres undefined) + NC1CCC(NC2CC2c2ccccc2)CC1", "TGT": "786-0 complex spheroid viability", "ANSWER_LABEL": "no"}
{"COMPOUND": "CCc1c2c(nc3ccc(O)cc13)-c1cc3c(c(=O)n1C2)COC(=O)[C@]3(O)CC + NC1CCC(NC2CC2c2ccccc2)CC1", "TGT": "786-0 complex spheroid viability", "ANSWER_LABEL": "yes"}
{"COMPOUND": "CCN(c1cc(-c2ccc(CN3CCOCC3)cc2)cc(C(=O)NCc2c(C)cc(C)[nH]c2=O)c1C)C1CCOCC1 + NC1CCC(NC2CC2c2ccccc2)CC1", "TGT": "786-0 complex spheroid viability", "ANSWER_LABEL": "no"}
{"COMPOUND": "Nc1ncn(C2CC(O)C(CO)S2)c(=O)n1 (centres undefined) + NC1CCC(NC2CC2c2ccccc2)CC1", "TGT": "786-0 complex spheroid viability", "ANSWER_LABEL": "no"}
{"COMPOUND": "Nc1ccn(C2OC(CO)C(O)C2(F)F)c(=O)n1 (centres undefined) + NC1CC1c1ccc(-c2cccc(O)c2)cc1", "TGT": "786-0 complex spheroid viability", "ANSWER_LABEL": "yes"}
{"COMPOUND": "Nc1ccccc1NC(=O)c1ccc(CNC(=O)OCc2cccnc2)cc1 + NC1CC1c1ccc(-c2cccc(O)c2)cc1", "TGT": "786-0 complex spheroid viability", "ANSWER_LABEL": "no"}
{"COMPOUND": "O=C(C=Cc1cccc(S(=O)(=O)Nc2ccccc2)c1)NO + NC1CCC(NC2CC2c2ccccc2)CC1", "TGT": "786-0 complex spheroid viability", "ANSWER_LABEL": "no"}

* * *

Test system: 786-0 complex spheroid viability
Experiment: Anticancer human tumor 786-0 cell line growth inhibition;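 also: spheroids exposed to agents for seven days before readout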
Conditions: curve of first compound; second compound 0.316 µM

{"COMPOUND": "CC1(C)CCC(CN2CCN(c3ccc(C(=O)NS(=O)(=O)c4ccc(NCC5CCOCC5)c([N+](=O)[O-])c4)c(Oc4cnc5[nH]ccc5c4)c3)CC2)=C(c2ccc(Cl)cc2)C1 + NC1CC1c1ccc(-c2cccc(O)c2)cc1", "IC50": "> 10000 nM"}
{"COMPOUND": "Nc1ncn(C2CC(O)C(CO)O2)c(=O)n1 (stereo not given) + NC1CCC(NC2CC2c2ccccc2)CC1", "IC50": "> 1000 nM"}
{"COMPOUND": "Cn1ncnc1C1c2n[nH]c(=O)c3cc(F)cc(c23)NC1c1ccc(F)cc1 (stereo not given) + NC1CC1c1ccc(-c2cccc(O)c2)cc1", "IC50": "> 100 nM"}
{"COMPOUND": "Nc1ccn(C2OC(CO)C(O)C2(F)F)c(=O)n1 (stereo not given) + NC1CC1c1ccc(-c2cccc(O)c2)cc1", "IC50": "< 0.949 nM"}
{"COMPOUND": "O=C(c1cc(Cc2n[nH]c(=O)c3ccccc23)ccc1F)N1CCN(C(=O)C2CC2)CC1 + NC1CCC(NC2CC2c2ccccc2)CC1", "IC50": "> 10000 nM"}

* * *

System: 786-0 complex spheroid viability
Assay: Anticancer human tumor 786-0 cell line growth inhibition; active means viability on the fitted dose curve at most 10% of control; inactive means the rest;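 also: spheroids exposed to agents for seven days before readout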
Settings: second compound 0.316 µM; first compound 0.949 µM
Possible outcomes: active, inactive

{"COMPOUND": "CCN(c1cc(-c2ccc(CN3CCOCC3)cc2)cc(C(=O)NCc2c(C)cc(C)[nH]c2=O)c1C)C1CCOCC1 + NC1CCC(NC2CC2c2ccccc2)CC1", "ANSWER_LABEL": "inactive"}
{"COMPOUND": "Nc1ccccc1NC(=O)c1ccc(CNC(=O)OCc2cccnc2)cc1 + NC1CCC(NC2CC2c2ccccc2)CC1", "ANSWER_LABEL": "inactive"}
{"COMPOUND": "NS(=O)(=O)OCC1CC(n2ccc3c(NC4CCc5ccccc54)ncnc32)CC1O (stereo not drawn) + NC1CCC(NC2CC2c2ccccc2)CC1", "ANSWER_LABEL": "active"}

* * *

System: 786-0 complex spheroid viability
Experiment: Anticancer human tumor 786-0 cell line growth inhibition; active means viability on the fitted dose curve at most 10% of control; inactive means the rest;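 also: spheroids exposed to agents for seven days before readout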
Details: second compound 0.316 µM; first compound 0.1 µM
Source text: Multicellular complex tumor spheroid response to LSD1 Inhibitor Iadademstat in combination with a variety of drugs and investigational agents in selected tumor cell lines The current study was undertaken to assess response to LSD1 inhibitors in combination with standard-of-care drugs and investigational agents in solid tumor complex spheroid models as well as in the K-562 leukemia. […] Compounds. […] If the clinical Cmax for an agent had not been determined, the highest concentration tested was 10 microM. […]
Possible outcomes: active, inactive

{"COMPOUND": "CC(C)CC(NC(=O)C(Cc1ccccc1)NC(=O)c1cnccn1)B(O)O (centres undefined) + NC1CCC(NC2CC2c2ccccc2)CC1", "ANSWER_LABEL": "active"}
{"COMPOUND": "CC(C)CC(NC(=O)CNC(=O)c1cc(Cl)ccc1Cl)B1OC(=O)CC(CC(=O)O)(C(=O)O)O1 (centres undefined) + NC1CC1c1ccc(-c2cccc(O)c2)cc1", "ANSWER_LABEL": "inactive"}
{"COMPOUND": "Nc1ncn(C2CC(O)C(CO)O2)c(=O)n1 (centres undefined) + NC1CC1c1ccc(-c2cccc(O)c2)cc1", "ANSWER_LABEL": "inactive"}
{"COMPOUND": "CC(C)c1c(-c2ccccc2)nc2c(C#N)c[nH]n2c1=O + NC1CCC(NC2CC2c2ccccc2)CC1", "ANSWER_LABEL": "inactive"}
{"COMPOUND": "CC1COCCN1c1cc(-c2ccnn2C)c2ccnc(-c3ccn[nH]3)c2n1 (centres undefined) + NC1CC1c1ccc(-c2cccc(O)c2)cc1", "ANSWER_LABEL": "inactive"}
{"COMPOUND": "O=C(c1cc(Cc2n[nH]c(=O)c3ccccc23)ccc1F)N1CCN(C(=O)C2CC2)CC1 + NC1CC1c1ccc(-c2cccc(O)c2)cc1", "ANSWER_LABEL": "inactive"}
{"COMPOUND": "O=C(C=Cn1cnc(-c2cc(C(F)(F)F)cc(C(F)(F)F)c2)n1)NNc1cnccn1 + NC1CC1c1ccc(-c2cccc(O)c2)cc1", "ANSWER_LABEL": "inactive"}
{"COMPOUND": "CC(C)CC(NC(=O)CNC(=O)c1cc(Cl)ccc1Cl)B1OC(=O)CC(CC(=O)O)(C(=O)O)O1 (centres undefined) + NC1CCC(NC2CC2c2ccccc2)CC1", "ANSWER_LABEL": "inactive"}
{"COMPOUND": "Cn1ncnc1C1c2n[nH]c(=O)c3cc(F)cc(c23)NC1c1ccc(F)cc1 (centres undefined) + NC1CC1c1ccc(-c2cccc(O)c2)cc1", "ANSWER_LABEL": "inactive"}
{"COMPOUND": "COc1ccc([C@@H](O)c2cc(-c3ncnc4cc(N5CCOCC5)ccc34)c(F)cc2Cl)nn1 + NC1CCC(NC2CC2c2ccccc2)CC1", "ANSWER_LABEL": "inactive"}
{"COMPOUND": "COc1cc(Nc2ncc3c(n2)-c2ccc(Cl)cc2C(c2c(F)cccc2OC)=NC3)ccc1C(=O)O + NC1CC1c1ccc(-c2cccc(O)c2)cc1", "ANSWER_LABEL": "inactive"}
{"COMPOUND": "O=C(c1cc(Cc2n[nH]c(=O)c3ccccc23)ccc1F)N1CCN(C(=O)C2CC2)CC1 + NC1CCC(NC2CC2c2ccccc2)CC1", "ANSWER_LABEL": "inactive"}
{"COMPOUND": "CC[C@@]1(O)C(=O)OCc2c1cc1n(c2=O)Cc2cc3c(CN(C)C)c(O)ccc3nc2-1 + NC1CC1c1ccc(-c2cccc(O)c2)cc1", "ANSWER_LABEL": "active"}
{"COMPOUND": "CC(C)CC(NC(=O)C(Cc1ccccc1)NC(=O)c1cnccn1)B(O)O (centres undefined) + NC1CC1c1ccc(-c2cccc(O)c2)cc1", "ANSWER_LABEL": "active"}

* * *

Listed here are compounds together with their documented pIC50.
System: 786-0 complex spheroid viability
Test: Anticancer human tumor 786-0 cell line growth inhibition;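 also: spheroids exposed to agents for seven days before readout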
Conditions: curve of first compound; second compound 0.316 µM
pIC50: −log10 of the molar value.

{"COMPOUND": "Nc1ncn(C2CC(O)C(CO)S2)c(=O)n1 (centres undefined) + NC1CC1c1ccc(-c2cccc(O)c2)cc1", "pIC50": "< 6.52"}
{"COMPOUND": "Nc1ncn(C2CC(O)C(CO)O2)c(=O)n1 (centres undefined) + NC1CC1c1ccc(-c2cccc(O)c2)cc1", "pIC50": "< 6.00"}
{"COMPOUND": "CC(C)c1c(-c2ccccc2)nc2c(C#N)c[nH]n2c1=O + NC1CCC(NC2CC2c2ccccc2)CC1", "pIC50": "< 5.00"}
{"COMPOUND": "CCN(c1cc(-c2ccc(CN3CCOCC3)cc2)cc(C(=O)NCc2c(C)cc(C)[nH]c2=O)c1C)C1CCOCC1 + NC1CC1c1ccc(-c2cccc(O)c2)cc1", "pIC50": "< 5.52"}
